pIC50: −log10 of the molar value.
// values below are pIC50; system is Bifunctional epoxide hydrolase 2 (Homo sapiens, UniProt P34913)
Sequence (P34913 whole entry): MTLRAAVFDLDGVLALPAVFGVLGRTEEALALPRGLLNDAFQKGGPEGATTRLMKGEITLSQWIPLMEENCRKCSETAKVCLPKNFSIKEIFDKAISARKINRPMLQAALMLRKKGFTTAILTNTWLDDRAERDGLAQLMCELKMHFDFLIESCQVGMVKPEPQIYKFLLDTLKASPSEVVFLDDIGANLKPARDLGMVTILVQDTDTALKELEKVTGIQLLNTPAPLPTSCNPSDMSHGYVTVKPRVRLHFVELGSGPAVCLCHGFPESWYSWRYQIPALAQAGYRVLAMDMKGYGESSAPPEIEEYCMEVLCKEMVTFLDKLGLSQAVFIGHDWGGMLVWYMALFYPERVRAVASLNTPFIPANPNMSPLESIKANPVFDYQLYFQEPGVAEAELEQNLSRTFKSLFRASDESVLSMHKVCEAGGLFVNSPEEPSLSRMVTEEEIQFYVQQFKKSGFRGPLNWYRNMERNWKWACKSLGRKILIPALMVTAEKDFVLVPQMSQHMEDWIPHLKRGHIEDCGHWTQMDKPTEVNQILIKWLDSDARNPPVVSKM
readout label: pIC50

INSERT INTO results (compound, readout_label, experimental_result) VALUES
  ('O=C(Nc1ccc(OC(F)(F)F)cc1)Nc1ccc(OC(F)(F)F)cc1', 'pIC50', 8.02),
  ('O=C(Nc1cccc(C(=O)c2ccccc2)c1)NC12CC3CC(CC(C3)C1)C2', 'pIC50', 8.57),
  ('O=C(NC12CC3CC(CC(C3)C1)C2)N[C@H]1CC[C@H](Oc2ccc(C(F)(F)F)cn2)CC1', 'pIC50', 8.32),
  ('CC(=O)c1cccc(NC(=O)NC23CC4CC(CC(C4)C2)C3)c1', 'pIC50', 8.89),
  ('O=C(Nc1ccc(C(F)(F)F)cc1)Nc1ccc(C(F)(F)F)cc1', 'pIC50', 7.82),
  ('O=C(Nc1cccc(C(=O)NCC2CN(Cc3ccccc3)CCO2)c1)NC12CC3CC(CC(C3)C1)C2 (centres undefined)', 'pIC50', 7.87),
  ('O=C(NCCCN1CCOCC1)NC12CC3CC(CC(C3)C1)C2', 'pIC50', 6.21),
  ('COC(=O)CCc1ccc(NC(=O)NC23CC4CC(CC(C4)C2)C3)cc1', 'pIC50', 8.70),
  ('CCCCCCCCCCCC(=O)NC12CC3CC(CC(C3)C1)C2', 'pIC50', 6.80),
  ('CC(C)(C)c1ccc(NC(=O)NC2CCCCC2)cc1', 'pIC50', 8.41),
  ('O=C(NCC1CCCCC1)Nc1cccc(Cl)c1', 'pIC50', 8.59),
  ('O=C(Nc1cccc(OC(F)(F)F)c1)NC12CC3CC(CC(C3)C1)C2', 'pIC50', 8.51),
  ('COC(=O)c1ccc(NC(=O)NC2CCCCCC2)cc1', 'pIC50', 7.91),
  ('O=C(NC1CCCC(C(=O)N2CCOCC2)C1)NC12CC3CC(CC(C3)C1)C2 (centres undefined)', 'pIC50', 8.09),
  ('Cc1cccc(NC(=O)NC23CC4CC(CC(C4)C2)C3)c1', 'pIC50', 8.21),
  ('O=C(NCCCc1ccccc1)NC12CC3CC(CC(C3)C1)C2', 'pIC50', 9.00),
  ('O=C(NN1CCOCC1)NC12CC3CC(CC(C3)C1)C2', 'pIC50', 4.89),
  ('CC(=O)c1ccc(NC(=O)NC23CC4CC(CC(C4)C2)C3)cc1', 'pIC50', 8.20),
  ('COC(=O)Cc1ccc(NC(=O)NC23CC4CC(CC(C4)C2)C3)cc1', 'pIC50', 8.36),
  ('C=CCO[C@H]1CC[C@@H](NC(=O)NC23CC4CC(CC(C4)C2)C3)CC1', 'pIC50', 8.89),
  ('O=C(Nc1ccc(C(=O)c2ccccc2)cc1)NC12CC3CC(CC(C3)C1)C2', 'pIC50', 8.80),
  ('CCOC(=O)COc1ccc(NC(=O)NC23CC4CC(CC(C4)C2)C3)cc1', 'pIC50', 9.10),
  ('COCCOCCCCCNC(=O)NC12CC3CC(CC(C3)C1)C2', 'pIC50', 7.92),
  ('O=C(Nc1cccc(C(F)(F)F)c1)NC12CC3CC(CC(C3)C1)C2', 'pIC50', 8.62),
  ('O=C(NC12CC3CC(CC(C3)C1)C2)N[C@H]1CC[C@@H](OC2CCCCC2)CC1', 'pIC50', 8.80),
  ('O=C(NC1CCCC(C(=O)N2CCC(N3CCOCC3)CC2)C1)NC12CC3CC(CC(C3)C1)C2 (centres undefined)', 'pIC50', 8.21),
  ('O=C(Nc1ccc(OCCN2CCOCC2)cc1Cl)NC12CC3CC(CC(C3)C1)C2', 'pIC50', 8.62),
  ('COc1cc(NC(=O)NC23CC4CC(CC(C4)C2)C3)cc(C(F)(F)F)c1', 'pIC50', 8.77),
  ('CCCC(C)OCCOCCOCCCCCNC(=O)NC12CC3CC(CC(C3)C1)C2 (centres undefined)', 'pIC50', 8.21);

---

target: Bifunctional epoxide hydrolase 2 (Homo sapiens)
pIC50: −log10 of the molar value.
readout label: pIC50

INSERT INTO measurements (mol_smiles, assay_target, readout_label, experimental_result) VALUES
  ('CC(C)c1ccc(NC(=O)NCC2CCCCC2)cc1', 'Bifunctional epoxide hydrolase 2 (Homo sapiens)', 'pIC50', 8.96),
  ('O=C(Nc1cccc(OC(F)(F)C(F)F)c1)NC12CC3CC(CC(C3)C1)C2', 'Bifunctional epoxide hydrolase 2 (Homo sapiens)', 'pIC50', 8.82),
  ('C=C(CCCNC(=O)NC12CC3CC(CC(C3)C1)C2)OCCOCCOCC', 'Bifunctional epoxide hydrolase 2 (Homo sapiens)', 'pIC50', 7.17),
  ('CCOC(=O)c1ccc(O[C@H]2CC[C@@H](NC(=O)NC34CC5CC(CC(C5)C3)C4)CC2)cc1', 'Bifunctional epoxide hydrolase 2 (Homo sapiens)', 'pIC50', 8.80),
  ('O=C(CCCCCCOCc1ccccc1)NC12CC3CC(CC(C3)C1)C2', 'Bifunctional epoxide hydrolase 2 (Homo sapiens)', 'pIC50', 7.18);

---

// values below are log10 IC50; system is Bifunctional epoxide hydrolase 2 (Homo sapiens, UniProt P34913);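 further: recombinant enzyme with CMNPC substrate, fluorescence readout of 6-methoxy-2-naphthaldehyde formed over a 10 min reaction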
readout label: log10 IC50 (log10 of the value in nM)

INSERT INTO results (mol_smiles, readout_label, experimental_result) VALUES
  ('CSc1ccc(NC(=O)NC23CC4CC(CC(C4)C2)C3)cc1', 'log10 IC50', 0.20),
  ('COC(=O)c1ccc(NC(=O)N[C@H]2CC[C@@H](Oc3cc(C(=O)OC)cc(C(=O)OC)c3)CC2)cc1', 'log10 IC50', 0.58),
  ('O=C(Nc1ccc(Oc2ccccc2)cc1)NC12CC3CC(CC(C3)C1)C2', 'log10 IC50', -0.30),
  ('CCCCCCc1ccc(NC(=O)NC2CCCCC2)cc1', 'log10 IC50', 0.26),
  ('O=C(Nc1ccc(O)c(Cl)c1)NC12CC3CC(CC(C3)C1)C2', 'log10 IC50', 0.71);

---

experiment: Drug uptake in mouse serum at 140 mg/kg, po administered in 30% Captisol measured after 2 hrs by LC-MS/MS analysis; assay type: ADME, organism-based; parameters: dose 140 mg/kg, route oral; conditions: read-out: Drug uptake
readout label: concentration at 2 h (µM)

INSERT INTO measurements (mol_smiles, experimental_result) VALUES
  ('COC(=O)c1ccc(NC(=O)NC23CC4CC(CC(C4)C2)C3)cc1O', 3);
